Source of measurements: the supplement of paper PMC10567573

B1: KCNG1 (parent)
chain: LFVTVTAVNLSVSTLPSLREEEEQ

Variants of: B1
TEST SUMMARY: protein stability index of a GFP-peptide fusion (GPS, HEK-293T) (PSI 1-6); higher = more stable;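 also: lentivirally expressed fusions sorted by FACS into six bins by GFP to DsRed ratio, PSI derived from sequencing read proportions per bin multiplied by bin number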
STATED CONDITIONS: c terminus: a fixed tail appended
MEASURED METRIC: protein stability index
One number for each entry.

* LFVTVSAVNLSVSTLPSLREEEEQ [T6S] | 2.27

Your task in this section: give protein stability index for each listed record.
1. LFVTVTADNLSVSTLPSLREEEEQ [V8D]
2. LFVTVTAVNLSVSTLPSLLEEEEQ [R19L]
3. LFVTVTAVNLSVSTQPSLREEEEQ [L15Q]
4. LFVTVTAVNLSKSTLPSLREEEEQ [V12K]
5. LFVTVTAHNLSVSTLPSLREEEEQ [V8H]
6. LFVTVTAVNLSVSTLPSLREELEQ [E22L]
7. LFVHVTAVNLSVSTLPSLREEEEQ [T4H]

2.29
2.85
1.05
2.44
2.95
3.04
1.93
